Reference source for all entries: PubChem BioAssay (NCATS)

- Test system: DIV17
- EXPERIMENT NOTES: qHTS profiling for inhibitors of Plasmodium falciparum proliferation (AID 504749); also: nearly all actives have a fitted effect of over 60% in size
- ASSAY SETUP: P. falciparum in erythrocytes, SYBR Green DNA, 72 h; series mostly up to 28.7 µM
Records with an inconclusive call do not appear. The source made the active and inactive calls. Calls follow the shape of the dose curve; as a rule, active = well fitted inhibition curve with a large enough effect; inconclusive = small, poorly fitted or top-dose-only effect; inactive = flat fitted curve, though single readings scatter.
Outcome codes: true (active), false (inactive)

COMPOUND: COc1cc2c(c(OC)c1OC)-c1ccc(OC)c(=O)cc1[C@@H](NC(C)=O)CC2
ASSIGNED LABEL: false

COMPOUND: CC(C)(Oc1ccc(C2CC2(Cl)Cl)cc1)C(=O)O (stereo not drawn)
ASSIGNED LABEL: false

COMPOUND: Cc1cn([C@H]2C=C[C@@H](CO)O2)c(=O)[nH]c1=O
ASSIGNED LABEL: false

COMPOUND: CS(=O)(=O)CCNCc1ccc(-c2ccc3ncnc(Nc4ccc(OCc5cccc(F)c5)c(Cl)c4)c3c2)o1
ASSIGNED LABEL: false

COMPOUND: COc1nc(C)nc(Cl)c1NC1=NCCN1
ASSIGNED LABEL: false

COMPOUND: CC1(CN2CCC(n3c(=O)[nH]c4ccccc43)CC2)OCc2ccccc2-n2cccc21 (stereo not drawn)
ASSIGNED LABEL: true

COMPOUND: CC(C)NCC(O)c1ccc(O)c(O)c1 (stereo not drawn)
ASSIGNED LABEL: false

COMPOUND: CCC1(c2ccccc2)C(=O)NCNC1=O
ASSIGNED LABEL: false

COMPOUND: NCCS(=O)(=O)O
ASSIGNED LABEL: false

COMPOUND: CN(C)CCCN1c2ccccc2CCc2ccc(Cl)cc21
ASSIGNED LABEL: true

COMPOUND: Cc1cc(C(C)(C)C)c(O)c(C)c1CC1=NCCN1
ASSIGNED LABEL: false

COMPOUND: CC(CCc1ccc(O)cc1)NCCc1ccc(O)c(O)c1 (stereo not drawn)
ASSIGNED LABEL: false

COMPOUND: CS(=O)(=O)Nc1ccc([N+](=O)[O-])cc1Oc1ccccc1
ASSIGNED LABEL: false

COMPOUND: CNCCCC12CCC(c3ccccc31)c1ccccc12
ASSIGNED LABEL: true

COMPOUND: CC[N+](CC)(CC)CCOc1cccc(OCC[N+](CC)(CC)CC)c1OCC[N+](CC)(CC)CC
ASSIGNED LABEL: false

COMPOUND: Cc1cnc(C(=O)NCCc2ccc(S(=O)(=O)NC(=O)NC3CCCCC3)cc2)cn1
ASSIGNED LABEL: false

COMPOUND: COc1ccccc1OCC(O)CN1CCN(CC(=O)Nc2c(C)cccc2C)CC1 (stereo not drawn)
ASSIGNED LABEL: false

COMPOUND: OCCN1CCN(CCCN2c3ccccc3Sc3ccc(C(F)(F)F)cc32)CC1
ASSIGNED LABEL: true
